B1: Twister Ribozyme (parent)
chain: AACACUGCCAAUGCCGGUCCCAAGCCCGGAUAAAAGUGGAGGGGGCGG

Variants of: B1
assay.info: self-cleavage, relative activity (ratio to wild type); higher = more cleavage; co-transcriptional
self-cleavage vs 0.2: at or above is 1, below is -1.

Solved entries:
[[record]]
change = "U6A A30G"
class_label = 1

[[record]]
change = "U6A U37A"
class_label = -1

[[record]]
change = "C27A C46U"
class_label = 1

[[record]]
change = "A1G A35C"
class_label = 1

[[record]]
change = "C5A C14U"
class_label = 1

[[record]]
change = "C8U C9G"
class_label = -1

[[record]]
change = "A1G A4C"
class_label = -1

[[record]]
change = "A1C C19A"
class_label = -1

[[record]]
change = "A4C G41U"
class_label = -1

[[record]]
change = "G7U G47A"
class_label = -1


Decide: self-cleavage of A10C G38U >= 0.2? 1

Next up: A22U G24U -1

Next up: C26U G28A -1

Next up: A23C G48U -1

Next up: C9U C20A -1

Next up: A2G A23G -1

Next up: A40U G44C -1

Next up: A2G G48C 1

Next up: C14G C19G -1

Next up: U12C A23C 1

Next up: A1U A34C -1

Next up: C26A U31C 1
